This section presents compounds with their documented AUC target safe level, Percent of baseline values.
assay-summary: AUC and Cmax target safe levels of CYP3A4 substrate drugs (Table 1)
condition-context: human
result-type: AUC target safe level, Percent of baseline

[
  {
    "compound": "COc1cc(OC)cc(N(CCNC(C)C)c2ccc3ncc(-c4cnn(C)c4)nc3c2)c1 [erdafitinib]",
    "result": "134%"
  },
  {
    "compound": "O=C(NC[C@H]1CN(c2ccc(N3CCOCC3=O)cc2)C(=O)O1)c1ccc(Cl)s1 [rivaroxaban]",
    "result": "152%"
  },
  {
    "compound": "CCN1CCN(Cc2ccc(Nc3ncc(F)c(-c4cc(F)c5nc(C)n(C(C)C)c5c4)n3)nc2)CC1 [abemaciclib]",
    "result": "130%"
  },
  {
    "compound": "CN(C(=O)c1ccccc1)[C@@H]1C[C@H]2O[C@@](C)([C@@H]1O)n1c3ccccc3c3c4c(c5c6ccccc6n2c5c31)C(=O)NC4 [CGP62221]",
    "result": "350%"
  },
  {
    "compound": "CC#CC(=O)N1CCC[C@H]1c1nc(-c2ccc(C(=O)Nc3ccccn3)cc2)c2c(N)nccn12 [acalabrutinib]",
    "result": "200%"
  },
  {
    "compound": "CCc1cc(/C(C)=N/OCc2ccc(C3CCCCC3)c(C(F)(F)F)c2)ccc1CN1CC(C(=O)O)C1 [siponimod]",
    "result": "1040%"
  },
  {
    "compound": "COc1c(OCCCN2CCOCC2)ccc2c1N=C(NC(=O)c1cnc(N)nc1)N1CCN=C21 [copanlisib]",
    "result": "153%"
  }
]
